Assay: Cytotoxicity against mouse CT26 cells assessed as reduction in cell viability after 72 hrs by MTT assay
Type: functional, cell-based
Conditions: Mus musculus, CT26, 72 h
Could you please report measured IC50 for the items listed next?

Compound Smiles	Recorded Metric	Val
Cc1cc2c(c(O)c1-c1c(C)cc3c(c1O)/C(=C/NC14CC5CC(CC(C5)C1)C4)C(=O)C(O)=C3C(C)C)/C(=C/NC13CC4CC(CC(C4)C1)C3)C(=O)C(O)=C2C(C)C	IC50	> 100 µM

Hi team, please reply with IC50 for each item in this list.
1. Cc1cc2c(c(O)c1-c1c(C)cc3c(c1O)/C(=C/NC1CCCCC1)C(=O)C(O)=C3C(C)C)/C(=C/NC1CCCCC1)C(=O)C(O)=C2C(C)C
2. COC(=O)[C@H](CCSC)N/C=C1\C(=O)C(O)=C(C(C)C)c2cc(C)c(-c3c(C)cc4c(c3O)/C(=C/N[C@@H](CCSC)C(=O)OC)C(=O)C(O)=C4C(C)C)c(O)c21
3. Cc1cc2c(c(O)c1-c1c(C)cc3c(c1O)/C(=C/N[C@H]1C[C@@H]4C[C@H]([C@@H]1C)C4(C)C)C(=O)C(O)=C3C(C)C)/C(=C/N[C@H]1C[C@@H]3C[C@H]([C@@H]1C)C3(C)C)C(=O)C(O)=C2C(C)C
4. Cc1cc2c(c(O)c1-c1c(C)cc3c(c1O)/C(=C/NCc1ccco1)C(=O)C(O)=C3C(C)C)/C(=C/NCc1ccco1)C(=O)C(O)=C2C(C)C

(A)
25.2 µM
> 100 µM
> 100 µM
> 100 µM
